# SYSTEM: human GABAA α1β3γ2 receptor (Homo sapiens (Human), UniProt P14867+P18507)
# PROTOCOL NOTES: Radioligand binding assay for γ2-containing GABAA subtypes, [3H]Flumazenil competition (α1β3γ2)
# ASSAY SETUP: Ki α1β3γ2 (nM)/Ki α2β2γ1 (nM)
Reported γ2/γ1 Selectivity Ratio values are given for each entry in this list.

MOLECULE | γ2/γ1 Selectivity Ratio
C[C@@H]1N=C(c2ncccc2F)c2c(ccc(Cl)c2Cl)-n2nc(C(=O)N3CC(O)C3)nc21 [Example 44] | 255.1
C[C@@H]1N=C(c2ncccc2F)c2c(ccc(C(F)(F)F)c2Cl)-n2cc(CO)nc21 [Example 153] | 97.7
CNC(=O)Nc1nc2n(n1)-c1ccc(C(F)(F)F)c(Cl)c1C(c1c(F)cccc1F)=N[C@H]2C [Example 129] | 558.0
C[C@@H]1N=C(c2ncccc2F)c2c(ccc(Cl)c2Cl)-n2nc(C(=O)N3CC(OC(F)F)C3)nc21 [Example 90] | 217.2
C[C@@H]1N=C(c2ncccc2F)c2c(ccc(C(F)(F)F)c2Cl)-n2nc(C(=O)N3CCC3)nc21 [Example 85] | 145.5
C[C@@H]1N=C(c2ncccc2F)c2c(ccc(C(F)(F)F)c2Cl)-n2nc(C(=O)NCCF)nc21 [Example 152] | 333.7
C[C@@H]1N=C(c2ncccc2F)c2c(ccc(C(F)(F)F)c2Cl)-n2nc(C(=O)N3CC(OC(F)F)C3)nc21 [Example 140] | 1041.0
Cc1nnc(-c2nc3n(n2)-c2ccc(C(F)(F)F)c(Cl)c2C(c2ncccc2F)=N[C@H]3C)o1 [Example 144] | 183.6
COC1CN(C(=O)c2nc3n(n2)-c2ccc(C(F)(F)F)c(Cl)c2C(c2c(F)cccc2F)=N[C@H]3C)C1 [Example 23] | 96.8
C[C@@H]1N=C(c2c(F)cccc2F)c2c(ccc(Cl)c2Cl)-n2nc(C(=O)N3CC4(CCCO4)C3)nc21 [Example 108] | 175.8
COCc1nc2n(n1)-c1ccc(Cl)c(Cl)c1C(c1c(F)cccc1F)=N[C@H]2C [Example 27] | 61.8
C[C@@H]1N=C(c2c(F)cccc2F)c2c(ccc(C(F)(F)F)c2Cl)-n2nc(C(=O)NCC#N)nc21 [Example 110] | 205.1
[2H]C([2H])([2H])NC(=O)c1nc2n(n1)-c1ccc(Cl)c(Cl)c1C(c1c(F)cccc1F)=NC2 [Example 7] | 75.6
Cc1cnc2n1-c1ccc(Br)c(Cl)c1C(c1c(F)cccc1F)=N[C@H]2C [Example 116] | 16.4
Cc1nc2n(n1)-c1ccc(Cl)c(Cl)c1C(c1c(F)cccc1F)=N[C@H]2C [Example 21] | 55.0
COC1CN(C(=O)c2cn3c(n2)CN=C(c2c(F)cccc2F)c2c-3ccc(Cl)c2Cl)C1 [Example 2] | 39.3
C[C@@H]1N=C(c2ncccc2F)c2c(ccc(C(F)(F)F)c2Cl)-n2cc(C(=O)NC[C@@H](C)O)nc21 [Example 157] | 185.8
C[C@@H]1N=C(c2c(F)cccc2F)c2c(ccc(C(F)(F)F)c2Cl)-n2nc(C(=O)NN3CCCC3)nc21 [Example 118] | 182.7
C[C@@H]1N=C(c2c(F)cccc2F)c2c(ccc(Cl)c2Cl)-n2cc(C(=O)N3CC(C#N)C3)nc21 [Example 71] | 32.8
C[C@@H]1N=C(c2c(F)cccc2F)c2c(ccc(C(F)(F)F)c2Cl)-n2nc(C(=O)NCCO)nc21 [Example 107] | 319.1
C[C@@H]1N=C(c2c(F)cccc2F)c2c(ccc(Cl)c2Cl)-n2nc(C(=O)N3CC(F)C3)nc21 [Example 40] | 91.4
CN(C)C(=O)c1nc2n(n1)-c1ccc(Cl)c(Cl)c1C(c1c(F)cccc1F)=NC2 [Example 9] | 179.8
C[C@@H]1N=C(c2c(F)cccc2F)c2c(ccc(Cl)c2Cl)-n2nc(C(=O)N3CC[C@@H](F)C3)nc21 [Example 76] | 157.7
C[C@@H]1N=C(c2c(F)cccc2F)c2c(ccc(Cl)c2Cl)-n2nc(N3CCS(=O)(=O)CC3)nc21 [Example 52] | 46.6
C[C@@H]1N=C(c2c(F)cccc2F)c2c(ccc(C(F)(F)F)c2Cl)-n2nc(C(=O)NC[C@@H](C)O)nc21 [Example 105] | 368.4
C[C@@H]1N=C(c2c(F)cccc2F)c2c(ccc(Cl)c2Cl)-n2nc(CO)nc21 [Example 13] | 142.7
